Where do these numbers come from? They come from the OligoGym collection.

TARGET DESC: CCL26; further: reference of the scale not given here
ASSAY SUMMARY: pooled miR-30 sensor sort-seq; sequence = guide strand
STATED CONDITIONS: shRNA
MEASURED ATTRIBUTE: sensor-assay potency score (higher = more potent)

// below: answered sequences
{"ENTRY SEQUENCE": "TTGTGGCTGTATTGGAAGCAGC", "TARGET DESC": "CCL26", "ENDPOINT VALUE": -1.27}
{"ENTRY SEQUENCE": "TTGGATATGTCACTCCCACGTG", "TARGET DESC": "CCL26", "ENDPOINT VALUE": -0.51}
{"ENTRY SEQUENCE": "TTTTGGTAGTGAATATCACAGC", "TARGET DESC": "CCL26", "ENDPOINT VALUE": -0.793}

INPUT: Tell me the measured sensor-assay potency score (higher = more potent) of TAGTGAATATCACAGCCCGCTG , please.
OUTPUT: -1.27

INPUT: Could you share which sensor-assay potency score (higher = more potent) value was measured for TGGATGGGTACAGACTTTCTTG ?
OUTPUT: -1.49
